method-description: Solubility of compound in diluted hydrochloric acid buffer solution at pH 3 at 25 deg C for 8 hrs
Type: physicochemical
measured-property: solubility at 8 h

• O=C1C(=O)c2nc(CNc3ccc(Cl)cc3)oc2-c2ccccc21 = < 100 µg/mL
• CC1(C)CCC2=C(O1)c1ccccc1C(=O)C2=O [LAPACHONE] = < 100 µg/mL
• O=C1C(=O)c2nc(CN3CCOCC3)oc2-c2ccccc21 = > 100 µg/mL
• COc1cccc(NCc2nc3c(o2)-c2ccccc2C(=O)C3=O)c1 = > 100 µg/mL
• O=C1C(=O)c2nc(CNc3cccc(F)c3)oc2-c2ccccc21 = < 100 µg/mL
• O=C1C(=O)c2nc(CN3CCN(Cc4ccccc4)CC3)oc2-c2ccccc21 = > 500 µg/mL
• O=C1C(=O)c2nc(CN3CCN(c4ccccc4)CC3)oc2-c2ccccc21 = > 100 µg/mL
• CN(C)Cc1nc2c(o1)-c1ccccc1C(=O)C2=O = > 100 µg/mL
• COc1ccccc1NCc1nc2c(o1)-c1ccccc1C(=O)C2=O = > 100 µg/mL
• COc1ccc(NCc2nc3c(o2)-c2ccccc2C(=O)C3=O)cc1 = > 100 µg/mL
• Cc1ccc(NCc2nc3c(o2)-c2ccccc2C(=O)C3=O)cc1 = > 100 µg/mL
